The reported measurements were obtained from patent US20240116946A1.

Molecular target: recombinant SARS-CoV-2 Main protease (Mpro) (Severe acute respiratory syndrome coronavirus 2 (2019-nCoV) (SARS-CoV-2))
Assay: Cov Mpro Biochemical IC50 Assay
Conditions: recombinant SARS-CoV-2 Mpro, fluorogenic peptide substrate; read-out: MPro IC50
REPORTED ENDPOINT: IC50 (µM)
Return type: number; implicit unit µM.

N#Cc1cccc(Cl)c1-c1ccc2c(=O)n(-c3cncc4ccccc34)c(=O)[nH]c2c1 [Example 98]    0.213
NC(=O)c1ccccc1-c1cc2[nH]c(=O)n(-c3cncc4ccccc34)c(=O)c2s1 [Example 3]    0.312
O=c1[nH]c2cc(-c3ccccc3Cl)sc2c(=O)n1-c1cnccc1N1CCNCC1 [Example 115]    0.522
COc1cc(-c2cccc(Cl)c2-c2ccc3c(=O)n(-c4cncc5ccccc45)c(=O)[nH]c3c2)cn2ncnc12 [Example 143]    0.0108
O=c1[nH]c2cc(-c3ccccc3Cl)sc2c(=O)n1-c1cncc2ccccc12 [Example 1]    0.0108
O=c1c2sc(-c3cccc4c3CCC4)cc2n(Cc2ccc(O)cc2)c(=O)n1-c1cncc2ccccc12 [Example 169]    5.55

The compound identified as O=c1[nH]c2cc(-c3cccnc3)ccc2c(=O)n1-c1cncc2ccccc12 [Example 43] registered its IC50 at 3.12

Reported IC50 ( COc1cc(-c2cc3[nH]c(=O)n(-c4cncc5ccccc45)c(=O)c3s2)c(Cl)cn1 [Example 365] ) = 0.1

====

Test system: SARS-CoV-2-NLuc
Assay: microbe, parasite or virus in culture
Assay type: cell-based, SARS Coronavirus 2
Conditions: Severe acute respiratory syndrome coronavirus, 48 h; read-out: MPro EC50
pEC50: −log10 of the molar value.
Binning of pEC50 into classes: Low (below 6), Mid (6 to below 7), High (7 or more)

Worked set:
COc1cc(-c2cc3c(s2)c(=O)n(-c2cncc4cnn(C)c24)c(=O)n3CC#N)c(Cl)cc1F    High
Cn1nnc2cncc(-n3c(=O)c4sc(-c5ccccc5Cl)cc4n(CCC#N)c3=O)c21    High
COc1cc(-c2cc3c(s2)c(=O)n(-c2cncc4ccccc24)c(=O)n3CC2(C#N)CC2)c(Cl)cc1F    High
O=c1[nH]c2cc(-c3ccccc3Cl)sc2c(=O)n1-c1cncc(C2CCC2)c1    Mid
O=c1[nH]c2nc(-c3ccccc3Cl)ccc2c(=O)n1-c1cncc2ccccc12    Low
COc1ccc(Cl)c(-c2cc3[nH]c(=O)n(-c4cncc5ccc(N6CCOCC6=O)cc45)c(=O)c3s2)c1    High
COc1ccc(Cl)c(-c2cc3[nH]c(=O)n(-c4cncc(CCC(=O)N5CCOCC5)c4)c(=O)c3s2)c1    Mid
COc1cc(-c2cc3c(s2)c(=O)n(-c2cncc4cnn(C)c24)c(=O)n3CCC#N)c(Cl)cc1F    High

Input line: Field: class (pEC50) — entry: Cc1noc(C)c1-c1cc2[nH]c(=O)n(-c3cncc(C4CC4)c3)c(=O)c2s1
Output line: Low

Input line: For this molecule, which bin applies? COc1cc(-c2cc3[nH]c(=O)n(-c4cnccc4C)c(=O)c3s2)c(Cl)cc1F
Output line: High

Input line: # bin label for COc1cncc(-n2c(=O)[nH]c3cc(-c4ccccc4Cl)sc3c2=O)c1
Output line: Mid

Input line: Lab note: which band did O=c1[nH]c2cc(-c3ccccc3Cl)sc2c(=O)n1-c1cnccc1N1CCN(C2COC2)CC1 land in?
Output line: Mid
